meta.source: PubChem BioAssay (NCI)

- ASSAY_NOTES: NCI Yeast Anticancer Drug Screen. Data for the mlh1 rad18 strain (AID 175)
- APPLIED_CONDITIONS: S. cerevisiae mlh1 rad18 strain growth inhibition; at 50.0 µM
Compounds without any hit were thinned out: in the full panel of roughly 79,000, 15% have a hit. Active and inactive are the calls of the source. Rule as the data show it: active = growth inhibition above about 70%; inactive = the rest.
One label from this list, please: TRUE = active, FALSE = inactive

COMPOUND	LABEL_VALUE
C[N+](C)=c1ccc2nc3c(cc(NCCCNc4cc5oc6cc(=[N+](C)C)ccc-6nc5c5ccccc45)c4ccccc43)oc-2c1	FALSE

Consider the record given below.
IN: Outcome? O=C1Nc2ccccc2/C1=C\c1ccccn1
OUT: FALSE

###

- ASSAY_NOTES: NCI Yeast Anticancer Drug Screen. Data for the bub3 strain (AID 167)
- APPLIED_CONDITIONS: S. cerevisiae bub3 mutant strain, at 50.0 µM, active compounds read high
The panel holds about 79,000 compounds, 15% with a hit somewhere; the sample as a whole holds those more often.
Here the recorded growth inhibition is given for each entry.
Could you give me the number in %? Just the number is fine.

COMPOUND	ASSAY_READOUT	ENDPOINT_UNIT	VALUE_OBSERVED
CCC(CC)COC(=O)c1ccc(O)c(O)c1	growth inhibition	%	99.1
c1cc(C2=NCCN2)ccc1Nc1ccc(-c2cc3ccc(C4=NCCN4)cc3[nH]2)cc1	growth inhibition	%	99.3
c1ccc2c(c1)[nH]c1cc3ccncc3cc12	growth inhibition	%	34.5
CN(C)N=Nc1ccc(Cl)c2ncccc12	growth inhibition	%	-4.15
C/C(=N\NC(=S)N(C)C1CCCCC1)c1ccc2ccccc2n1	growth inhibition	%	76.9
O=S(=O)(c1ccc(O)cc1)c1ccc(Cl)cc1	growth inhibition	%	56.2
Cc1ccc(C)c(NC(=O)CCC(=O)C(C#N)c2cccc3ccccc23)c1 (configuration not stated)	growth inhibition	%	10.3
Nc1ccc(C2CCC[C@H]2c2ccc(N)cc2)cc1 (some centres not stated)	growth inhibition	%	58.6
COC(=O)[C@H]1O[C@H]1c1ccncc1	growth inhibition	%	6.2
CCOC(=O)C(C(C)=O)C1=C(Cl)C(=O)c2ccccc2C1=O (configuration not stated)	growth inhibition	%	97.5

IN: So what's the measured growth inhibition for this one? CCCCCCCNCCCCCC
OUT: 67.1

IN: // query growth inhibition value for entry CN(C)CC(CN(C)C)C(=O)c1ccc(Oc2ccccc2)cc1
OUT: 99.5

###

- ASSAY_NOTES: NCI Yeast Anticancer Drug Screen. Data for the mlh1 rad18 strain (AID 175)
- APPLIED_CONDITIONS: S. cerevisiae mlh1 rad18 strain growth inhibition; at 50.0 µM; active compounds read high
This is part of a sample that, as a whole, favours compounds with a hit. Of some 79,000 tested, about 15% had one in any assay.
ASSAY_READOUT: growth inhibition (%)
Quick reminder: number only, in %, skip the unit.

COMPOUND	growth inhibition [%]
Cc1occc1C(=S)Nc1ccc(Cl)c(C(=O)OC(C)C2CC2)c1 (stereo not given)	63.5
CC[n+]1c(/C=C/c2cc(C(=O)OC)n3c2sc2ccccc23)sc2ccccc21	98.8
CC(=O)c1cc(-c2ccccc2)nc2ccccc12	97.1
CC1CC[N-]CC1.CC1CC[N-]CC1.CC1CC[N-]CC1.CC1CC[N-]CC1.CS(C)=O.CS(C)=O.[Cl-].[Cl-].[Cl-].[Cl-].[Pt+4].[Rh+3]	97
COc1ccc2c(c1)CCC1=C2C=C[P+]1(C)C	99.5

IN: Query: growth inhibition; subject: COC1=CC(=O)c2c(O)c3c(c(O)c2C1=O)C[C@](C)(O)C[C@@H]3O
OUT: 84.5

IN: Find the recorded growth inhibition belonging to CC1=C(/C=C/C(C)=N/NC(N)=S)C(C)(C)CCC1 and report it.
OUT: 85

IN: Which measured growth inhibition value corresponds to CCCCCCCCCN(CCCCCCCCC)CC(O)c1cc2c(c3ccccc13)CCCC2 (stereo not given) ?
OUT: 98.8

IN: Suppose we examine the compound N#CCCN(CCCN1CCOCC1)C(=S)Nc1cccc(C(F)(F)F)c1 ; what growth inhibition value has been reported?
OUT: 36

IN: Param item = O=C(O)/C=C/c1ccc([N+](=O)[O-])o1 ; retrieve measured growth inhibition.
OUT: 93.2
